Each entry below carries its recorded Selectivity Index.
organism: Homo sapiens; experiment: Selectivity index, ratio of IC50 for recombinant human C-terminal His-tagged HDAC1 expressed in Sf9 cells to IC50 for recombinant human full length N-terminal GST-tagged HDAC6 expressed in Sf9 cells
// keep it numeric: no unit symbol after the value

Please look up its Selectivity Index: `Cc1ccc(C(=O)NO)cc1F` 140

Can you look up the measured Selectivity Index of `O=C(NO)c1ccc(Cn2nnc(-c3ncccn3)n2)cc1` for me? 733

Query: Selectivity Index; subject: `Nc1ccc(C(=O)NO)cc1` 18

# get_value(readout='Selectivity Index', item= `CC(=O)Nc1ccc(C(=O)NO)cc1` ) 11

Quick check: Selectivity Index of `Cc1ccc(C(=O)NO)cn1` ? 162

Any idea what Selectivity Index was measured for `Nc1ccc(C(=O)NO)cc1F` ? 40

Can you share its Selectivity Index? I mean this compound: `O=C(NO)c1cccnc1` 51

Param item = `Nc1ccc(C(=O)NO)cn1` ; retrieve measured Selectivity Index. 40

Data request, read-out Selectivity Index, for O=C(NO)c1ccccc1 [BENZOHYDROXAMATE] 19

Find the recorded Selectivity Index belonging to `Nc1c(F)cc(C(=O)NO)cc1F` and report it. 141

====

target: Histone deacetylase 7 (Homo sapiens); assay: Inhibition of recombinant human N-terminal GST-tagged HDAC7 (518 to end residues) expressed in baculovirus expression system using Nepsilon-Trifluoroacetyl L-lysine as substrate by fluorescent microplate reader assay
recorded.metric: pIC50
API: returns pIC50 as number; meaning -log10 of concentration in mol/L.

Can you share its pIC50? I mean this molecule: `O=C(NO)c1ccc(Cn2nnc(-c3ncccn3)n2)cc1` 6.00

====

Overview of reported pIC50 across a group of compounds:
target: Histone deacetylase 9 (Homo sapiens, UniProt Q9UKV0); assay: Inhibition of recombinant human C-terminal His-tagged HDAC9 (604 to 1066 residues) expressed in baculovirus expression system using Nepsilon-Trifluoroacetyl L-lysine substrate by fluorescent microplate reader assay
Sequence (Q9UKV0 whole entry, the tested form may be a part): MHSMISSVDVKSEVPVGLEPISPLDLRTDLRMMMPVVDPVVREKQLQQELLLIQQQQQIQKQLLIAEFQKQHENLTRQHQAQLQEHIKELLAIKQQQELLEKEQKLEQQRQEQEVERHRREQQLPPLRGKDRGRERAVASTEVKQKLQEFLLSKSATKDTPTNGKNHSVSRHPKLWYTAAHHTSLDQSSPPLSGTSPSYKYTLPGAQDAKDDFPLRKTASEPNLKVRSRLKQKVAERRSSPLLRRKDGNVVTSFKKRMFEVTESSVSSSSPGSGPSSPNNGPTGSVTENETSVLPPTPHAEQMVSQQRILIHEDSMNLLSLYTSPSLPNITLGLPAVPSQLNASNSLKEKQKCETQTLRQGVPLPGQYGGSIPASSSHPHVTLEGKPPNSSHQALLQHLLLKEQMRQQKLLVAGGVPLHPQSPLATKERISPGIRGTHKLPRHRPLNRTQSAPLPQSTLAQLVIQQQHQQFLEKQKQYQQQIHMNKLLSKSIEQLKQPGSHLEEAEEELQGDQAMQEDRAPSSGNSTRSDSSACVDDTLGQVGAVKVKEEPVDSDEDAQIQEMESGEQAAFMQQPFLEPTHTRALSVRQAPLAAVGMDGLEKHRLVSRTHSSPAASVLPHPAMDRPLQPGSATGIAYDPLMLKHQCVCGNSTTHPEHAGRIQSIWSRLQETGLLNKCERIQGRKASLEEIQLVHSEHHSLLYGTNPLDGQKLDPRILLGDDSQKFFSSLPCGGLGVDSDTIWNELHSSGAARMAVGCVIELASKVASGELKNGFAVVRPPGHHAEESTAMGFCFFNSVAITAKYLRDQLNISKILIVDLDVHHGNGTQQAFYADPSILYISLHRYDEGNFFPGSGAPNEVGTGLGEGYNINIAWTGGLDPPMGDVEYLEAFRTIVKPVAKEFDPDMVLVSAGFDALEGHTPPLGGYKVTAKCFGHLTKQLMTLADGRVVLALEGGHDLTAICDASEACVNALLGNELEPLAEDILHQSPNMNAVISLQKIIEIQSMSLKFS
Lab note: report pIC50 as minus log10 of the concentration in molar units, number only.

O=C(NO)c1cc(F)c(Cn2nnc(-c3ncccn3)n2)c(F)c1 = 6.32

Let us move to another entry and its pIC50.
Need pIC50, item `O=C(NO)c1ccc(Cn2nnc(-c3ncccn3)n2)cc1` 5.77

====

molecular target: Histone deacetylase 1 (Homo sapiens, UniProt Q13547); assay: Inhibition of recombinant human C-terminal His-tagged HDAC1 expressed in Sf9 insect cells using Fluor de Lys deacetylase or Fluor de Lys Green deacetylase as substrate by fluorescent microplate reader assay
Sequence (Q13547 whole entry): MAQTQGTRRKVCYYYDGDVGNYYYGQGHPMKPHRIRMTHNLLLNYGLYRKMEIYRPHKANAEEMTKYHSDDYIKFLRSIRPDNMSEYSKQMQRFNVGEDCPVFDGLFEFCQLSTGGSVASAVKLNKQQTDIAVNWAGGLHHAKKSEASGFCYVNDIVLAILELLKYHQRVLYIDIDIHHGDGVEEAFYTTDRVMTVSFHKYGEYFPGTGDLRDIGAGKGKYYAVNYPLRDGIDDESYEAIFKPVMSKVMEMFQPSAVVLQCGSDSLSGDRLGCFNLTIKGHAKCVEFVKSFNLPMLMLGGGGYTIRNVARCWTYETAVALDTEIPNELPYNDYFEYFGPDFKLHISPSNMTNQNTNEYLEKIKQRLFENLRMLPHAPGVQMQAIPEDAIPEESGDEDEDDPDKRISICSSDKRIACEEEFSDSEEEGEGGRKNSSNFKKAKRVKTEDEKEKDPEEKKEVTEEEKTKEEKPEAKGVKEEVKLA
recorded.metric: pIC50
Scale: negative log10 of molar concentration, which is what pIC50 denotes.

O=C(NO)c1cc(F)c(Cn2nnc(-c3ncccn3)n2)c(F)c1 = 5.40
Cc1ccc(C(=O)NO)cc1F = 5.17
O=C(NO)c1cccc(F)c1 = 4.53
Nc1ccc(C(=O)NO)cc1F = 5.13
O=C(NO)c1ccccc1 [BENZOHYDROXAMATE] = 4.60

May I ask what pIC50 has been recorded for `CC(=O)Nc1ccc(C(=O)NO)cc1` ? 5.72

Could you share which pIC50 value was measured for `Cc1ccc(C(=O)NO)cn1` ? 4.94

What does the data say about its pIC50? Entry: `Cc1ccc(C(=O)NO)cc1` 5.25

Given `CC(=O)Nc1ccc(C(=O)NO)cc1F` , state its recorded pIC50. 5.49

Given the entry `CCN(CC)Cc1ccc2cc(COC(=O)Nc3c(F)cc(C(=O)NO)cc3F)ccc2c1` , report its measured pIC50. 6.14

Look at this molecule and give its reported pIC50. `O=C(NO)c1ccc(Cn2nnc(-c3ncccn3)n2)cc1` 6.03

Give its pIC50 value. Item: `Nc1ccc(C(=O)NO)cn1` 5.01

What does the data say about its pIC50? Entry: `Nc1c(F)cc(C(=O)NO)cc1F` 4.80

Please give the measured pIC50 for this molecule: `O=C(NO)c1cccnc1` 4.46

====

molecular target: Protein deacetylase HDAC6 (Homo sapiens, UniProt Q9UBN7); test: Inhibition of recombinant human full length N-terminal GST-tagged HDAC6 expressed in Sf9 insect cells using Fluor de Lys deacetylase or Fluor de Lys Green deacetylase substrate by fluorescent microplate reader assay
Sequence (Q9UBN7 whole entry): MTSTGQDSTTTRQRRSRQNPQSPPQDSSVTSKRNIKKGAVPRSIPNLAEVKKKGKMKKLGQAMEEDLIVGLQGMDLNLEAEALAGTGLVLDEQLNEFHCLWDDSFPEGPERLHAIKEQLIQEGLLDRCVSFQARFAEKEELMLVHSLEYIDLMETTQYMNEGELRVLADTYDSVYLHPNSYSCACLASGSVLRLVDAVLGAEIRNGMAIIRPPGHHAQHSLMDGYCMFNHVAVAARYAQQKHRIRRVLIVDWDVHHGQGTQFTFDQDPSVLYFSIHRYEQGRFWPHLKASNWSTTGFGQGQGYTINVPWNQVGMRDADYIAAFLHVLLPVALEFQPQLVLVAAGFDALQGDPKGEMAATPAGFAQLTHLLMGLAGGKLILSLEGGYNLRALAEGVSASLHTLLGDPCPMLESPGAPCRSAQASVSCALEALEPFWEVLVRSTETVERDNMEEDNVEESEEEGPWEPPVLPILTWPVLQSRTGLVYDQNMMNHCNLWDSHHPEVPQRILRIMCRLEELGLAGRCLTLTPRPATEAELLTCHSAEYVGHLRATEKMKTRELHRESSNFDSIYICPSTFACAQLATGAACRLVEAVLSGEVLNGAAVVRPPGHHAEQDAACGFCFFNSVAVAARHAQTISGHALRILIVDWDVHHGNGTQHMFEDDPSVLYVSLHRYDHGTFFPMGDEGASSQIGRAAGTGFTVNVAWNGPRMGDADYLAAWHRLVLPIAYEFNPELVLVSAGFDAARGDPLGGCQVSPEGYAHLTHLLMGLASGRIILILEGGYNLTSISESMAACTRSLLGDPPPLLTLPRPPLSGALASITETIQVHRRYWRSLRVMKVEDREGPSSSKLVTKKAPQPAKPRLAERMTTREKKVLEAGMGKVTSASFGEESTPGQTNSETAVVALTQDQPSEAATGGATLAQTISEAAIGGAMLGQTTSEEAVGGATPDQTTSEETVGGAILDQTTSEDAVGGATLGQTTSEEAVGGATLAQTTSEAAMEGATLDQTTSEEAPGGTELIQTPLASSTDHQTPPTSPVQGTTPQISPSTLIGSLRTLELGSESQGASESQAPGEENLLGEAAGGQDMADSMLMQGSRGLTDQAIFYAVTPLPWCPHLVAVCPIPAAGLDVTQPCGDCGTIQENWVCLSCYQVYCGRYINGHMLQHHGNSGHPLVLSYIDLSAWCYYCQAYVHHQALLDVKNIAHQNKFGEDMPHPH
recorded.metric: pIC50
Units for pIC50: none; it is -log10 of a concentration expressed in mol/L.

Below: 3 molecules and their reported pIC50.
Nc1ccc(C(=O)NO)cn1 = 6.62
Nc1ccc(C(=O)NO)cc1 = 6.41
CC(=O)Nc1ccc(C(=O)NO)cc1 = 6.79

# query: pIC50 | item `CC(=O)Nc1ccc(C(=O)NO)cc1F` | system: Protein deacetylase HDAC6 (Homo sapiens, UniProt Q9UBN7) 7.24

// fetch Protein deacetylase HDAC6 (Homo sapiens, UniProt Q9UBN7) pIC50 for `Cc1ccc(C(=O)NO)cc1F` 7.31

Under Protein deacetylase HDAC6 (Homo sapiens, UniProt Q9UBN7): pIC50 value of `Cc1ccc(C(=O)NO)cn1` ? 7.15

Quick check: pIC50 on Protein deacetylase HDAC6 (Homo sapiens, UniProt Q9UBN7), item `O=C(NO)c1cccnc1` ? 6.17

Request body: readout pIC50, system Protein deacetylase HDAC6 (Homo sapiens, UniProt Q9UBN7), query `Cc1c(F)cc(C(=O)NO)cc1F` . Return the value. 7.57

Form field: pIC50 recorded for `Nc1c(F)cc(C(=O)NO)cc1F` with Protein deacetylase HDAC6 (Homo sapiens, UniProt Q9UBN7) (enter value) 6.95

Record `Nc1ncc(C(=O)NO)cn1` : what is its pIC50 with Protein deacetylase HDAC6 (Homo sapiens, UniProt Q9UBN7)? 7.19

Write down the reported pIC50 of `Cc1ccc(C(=O)NO)cc1` , test system: Protein deacetylase HDAC6 (Homo sapiens, UniProt Q9UBN7). 6.85

====

biological target: Histone deacetylase 1 (Homo sapiens, UniProt Q13547); test: Inhibition of recombinant human C-terminal His-tagged HDAC1 expressed in Sf9 insect cells using Fluor de Lys deacetylase or Fluor de Lys Green deacetylase as substrate by fluorescent microplate reader assay
recorded.metric: IC50 (µM)
Give the number; µM is assumed, so skip it.

Cc1c(F)cc(C(=O)NO)cc1F = 13.8

Data request, read-out IC50, for `Nc1ncc(C(=O)NO)cn1` 3.06

State the recorded IC50 for this entry: `Nc1ccc(C(=O)NO)cc1` 7.14

====

molecular target: Histone deacetylase 5 (Homo sapiens); test: Inhibition of recombinant human ful length N-terminal GST-tagged HDAC5 expressed in baculovirus expression system using Nepsilon-Trifluoroacetyl L-lysine as substrate by fluorescent microplate reader assay
Sequence (Q9UQL6 whole entry): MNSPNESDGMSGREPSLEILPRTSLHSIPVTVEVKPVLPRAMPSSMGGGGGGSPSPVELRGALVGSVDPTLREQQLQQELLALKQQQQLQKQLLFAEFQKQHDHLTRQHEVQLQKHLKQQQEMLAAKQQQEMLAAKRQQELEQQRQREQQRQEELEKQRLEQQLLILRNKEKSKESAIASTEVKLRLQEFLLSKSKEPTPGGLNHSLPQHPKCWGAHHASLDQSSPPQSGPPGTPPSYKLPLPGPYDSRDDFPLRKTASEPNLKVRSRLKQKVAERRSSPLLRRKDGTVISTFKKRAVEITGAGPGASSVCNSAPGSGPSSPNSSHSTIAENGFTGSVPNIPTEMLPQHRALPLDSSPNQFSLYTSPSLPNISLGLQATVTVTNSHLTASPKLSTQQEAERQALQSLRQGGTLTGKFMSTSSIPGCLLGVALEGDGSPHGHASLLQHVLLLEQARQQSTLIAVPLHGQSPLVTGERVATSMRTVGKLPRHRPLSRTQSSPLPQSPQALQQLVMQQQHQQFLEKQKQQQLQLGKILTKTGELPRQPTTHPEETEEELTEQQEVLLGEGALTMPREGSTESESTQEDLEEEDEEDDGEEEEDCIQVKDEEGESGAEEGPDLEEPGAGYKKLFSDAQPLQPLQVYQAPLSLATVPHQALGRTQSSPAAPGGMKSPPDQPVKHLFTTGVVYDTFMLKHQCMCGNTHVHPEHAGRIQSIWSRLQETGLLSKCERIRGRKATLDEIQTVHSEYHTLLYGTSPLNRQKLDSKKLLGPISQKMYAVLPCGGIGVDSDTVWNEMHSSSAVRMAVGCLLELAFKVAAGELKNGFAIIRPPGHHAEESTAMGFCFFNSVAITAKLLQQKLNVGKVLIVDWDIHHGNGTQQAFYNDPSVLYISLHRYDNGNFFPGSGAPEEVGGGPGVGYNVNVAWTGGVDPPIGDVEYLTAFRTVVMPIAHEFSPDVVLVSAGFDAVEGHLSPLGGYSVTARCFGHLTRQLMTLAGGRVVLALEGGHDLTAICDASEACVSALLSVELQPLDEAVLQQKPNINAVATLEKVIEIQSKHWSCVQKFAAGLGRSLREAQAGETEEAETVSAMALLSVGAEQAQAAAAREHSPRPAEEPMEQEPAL
recorded.metric: pIC50
// field semantics: pIC50 = negative decimal log of concentration (mol/L)

O=C(NO)c1cc(F)c(Cn2nnc(-c3ncccn3)n2)c(F)c1 = 5.55

Kindly review the next compound as well.
Which measured pIC50 value corresponds to `O=C(NO)c1ccc(Cn2nnc(-c3ncccn3)n2)cc1` ? 5.30

====

biological target: Histone deacetylase 3 (Homo sapiens); experiment: Inhibition of recombinant human C-terminal His-tagged HDAC3 (1 to 428 residues) expressed in Sf9 insect cells using Fluor de Lys deacetylase or Fluor de Lys Green deacetylase substrate by fluorescent microplate reader assay
Sequence (O15379 whole entry, the tested form may be a part): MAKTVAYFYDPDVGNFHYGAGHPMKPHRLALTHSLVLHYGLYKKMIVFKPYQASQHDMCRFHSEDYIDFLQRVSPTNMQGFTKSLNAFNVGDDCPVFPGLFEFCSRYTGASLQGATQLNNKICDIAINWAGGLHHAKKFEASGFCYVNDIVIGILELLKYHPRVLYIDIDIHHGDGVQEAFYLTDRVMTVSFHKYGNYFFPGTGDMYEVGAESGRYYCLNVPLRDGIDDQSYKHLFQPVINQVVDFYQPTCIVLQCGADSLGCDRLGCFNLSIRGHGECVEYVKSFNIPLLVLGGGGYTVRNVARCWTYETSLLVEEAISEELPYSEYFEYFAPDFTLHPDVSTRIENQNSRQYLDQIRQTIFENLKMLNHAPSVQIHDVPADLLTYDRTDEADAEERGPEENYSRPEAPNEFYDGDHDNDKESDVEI
Below: a set of entries, each annotated with reported pIC50.
Note on units: pIC50 is unitless, being -log10 of a concentration expressed in mol/L.

O=C(NO)c1ccc(Cn2nnc(-c3ncccn3)n2)cc1 = 6.05
O=C(NO)c1cc(F)c(Cn2nnc(-c3ncccn3)n2)c(F)c1 = 5.29

Let us move to another entry and its pIC50.
Fill in the blank: the reported pIC50 of `O=C(NO)c1cc(F)c(Cn2nnnc2-c2cccs2)c(F)c1` is ____. 5.22

====

In this section we review reported IC50 values for a set of compounds.
molecular target: UniProt Q969S8; assay: Inhibition of recombinant human N-terminal FLAG-tagged HDAC10 (1 to 613 residues) expressed in Sf9 insect cells using Fluor de Lys deacetylase or Fluor de Lys Green deacetylase substrate by fluorescent microplate reader assay
Sequence (Q969S8 whole entry, the tested form may be a part): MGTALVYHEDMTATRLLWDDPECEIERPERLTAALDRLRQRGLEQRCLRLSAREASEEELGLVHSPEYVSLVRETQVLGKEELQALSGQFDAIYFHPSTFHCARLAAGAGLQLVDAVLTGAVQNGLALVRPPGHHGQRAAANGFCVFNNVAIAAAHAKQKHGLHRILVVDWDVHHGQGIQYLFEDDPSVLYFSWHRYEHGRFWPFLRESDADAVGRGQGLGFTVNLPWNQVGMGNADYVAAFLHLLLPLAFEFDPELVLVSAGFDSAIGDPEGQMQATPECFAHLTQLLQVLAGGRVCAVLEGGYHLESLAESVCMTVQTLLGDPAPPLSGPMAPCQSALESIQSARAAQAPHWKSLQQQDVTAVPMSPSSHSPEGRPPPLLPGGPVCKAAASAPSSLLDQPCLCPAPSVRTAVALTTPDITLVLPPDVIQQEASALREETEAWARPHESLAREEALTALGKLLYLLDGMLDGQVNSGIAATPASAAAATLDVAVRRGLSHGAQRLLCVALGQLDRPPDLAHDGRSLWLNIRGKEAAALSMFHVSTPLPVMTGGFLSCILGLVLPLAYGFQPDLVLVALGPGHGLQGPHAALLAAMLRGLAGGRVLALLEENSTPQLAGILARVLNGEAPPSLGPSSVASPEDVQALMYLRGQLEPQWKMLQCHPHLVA
Answer in µM, number only, no unit symbol.

O=C(NO)c1cc(F)c(Cn2nnc(-c3ncccn3)n2)c(F)c1 = 9.08
O=C(NO)c1cc(F)c(Cn2nnnc2-c2cccs2)c(F)c1 = 8.74

Please examine the following record next.
Query: IC50; subject: `O=C(NO)c1ccc(Cn2nnc(-c3ncccn3)n2)cc1` 0.474

====

species on record: Homo sapiens; experiment: Selectivity index, ratio of IC50 for recombinant human C-terminal His-tagged HDAC1 expressed in Sf9 cells to IC50 for recombinant human full length N-terminal GST-tagged HDAC6 expressed in Sf9 cells
Note to self: values exactly at 50 are yes (1). So Selectivity Index at or above 50 is yes (1), below is no (0).

Solved entries:
Nc1ncc(C(=O)NO)cn1 = no (0)
Cc1c(F)cc(C(=O)NO)cc1F = yes (1)
CC(=O)Nc1ccc(C(=O)NO)cc1F = yes (1)
O=C(NO)c1cccc(F)c1 = yes (1)
CCN(CC)Cc1ccc2cc(COC(=O)Nc3c(F)cc(C(=O)NO)cc3F)ccc2c1 = yes (1)

Kindly review the next molecule as well.
Does Selectivity Index meet or surpass 50 for `Cc1ccc(C(=O)NO)cc1` ? no (0)

Taken from ChEMBL document CHEMBL4825781.
